Origin of measurements: ChEMBL document CHEMBL4339212

assay-overview: Half life in Sprague-Dawley rat at 5 mg/kg, ig measured after 5 mins to 24 hrs by LC-MS analysis
Assay type: ADME, organism-based
assay-conditions: in vivo, po
measured-parameter: half-life (h)
Provide the reading as a plain figure in h.

### Prompt Which half-life is reported for this compound? CO[C@H]1CCN(c2cc(NC(=O)N3CCCc4cc(CN5CCOCC5=O)c(C=O)nc43)ncc2C#N)C1
### Response 1.2

====

measurement-target: Non-receptor tyrosine-protein kinase TYK2 (Homo sapiens)
Sequence (P29597 whole entry): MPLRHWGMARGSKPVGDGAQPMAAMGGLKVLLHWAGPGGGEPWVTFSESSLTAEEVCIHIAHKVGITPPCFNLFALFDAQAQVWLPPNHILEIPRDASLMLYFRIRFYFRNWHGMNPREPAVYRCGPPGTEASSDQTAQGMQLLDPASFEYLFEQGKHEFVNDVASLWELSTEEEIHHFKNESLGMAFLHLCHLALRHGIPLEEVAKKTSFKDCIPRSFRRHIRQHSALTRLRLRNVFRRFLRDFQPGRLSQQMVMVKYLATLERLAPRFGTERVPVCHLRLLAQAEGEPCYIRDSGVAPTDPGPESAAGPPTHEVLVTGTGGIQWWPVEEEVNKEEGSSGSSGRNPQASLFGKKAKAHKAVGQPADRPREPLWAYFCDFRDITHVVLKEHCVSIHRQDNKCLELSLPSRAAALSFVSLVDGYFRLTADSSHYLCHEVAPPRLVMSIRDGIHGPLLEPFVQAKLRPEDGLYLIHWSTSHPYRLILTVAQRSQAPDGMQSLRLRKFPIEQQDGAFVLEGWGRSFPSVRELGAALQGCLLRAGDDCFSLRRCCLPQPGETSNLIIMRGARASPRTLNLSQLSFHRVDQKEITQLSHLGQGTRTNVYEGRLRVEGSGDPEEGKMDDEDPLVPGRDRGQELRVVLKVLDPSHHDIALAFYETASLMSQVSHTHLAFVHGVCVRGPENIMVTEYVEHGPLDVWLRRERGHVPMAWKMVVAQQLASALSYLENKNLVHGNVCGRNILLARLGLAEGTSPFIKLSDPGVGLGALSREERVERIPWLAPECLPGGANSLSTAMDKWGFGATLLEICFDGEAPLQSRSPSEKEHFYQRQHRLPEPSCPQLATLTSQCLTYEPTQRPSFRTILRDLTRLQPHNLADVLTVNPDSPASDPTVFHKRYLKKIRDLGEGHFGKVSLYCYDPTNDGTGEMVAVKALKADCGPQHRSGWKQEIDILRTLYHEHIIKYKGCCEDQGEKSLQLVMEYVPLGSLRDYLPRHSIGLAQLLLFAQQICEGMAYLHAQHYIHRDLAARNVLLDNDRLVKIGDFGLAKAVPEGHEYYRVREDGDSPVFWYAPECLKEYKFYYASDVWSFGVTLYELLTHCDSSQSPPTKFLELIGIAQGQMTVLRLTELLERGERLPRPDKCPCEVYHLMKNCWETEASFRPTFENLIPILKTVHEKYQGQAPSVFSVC
pIC50: −log10 of the molar value.
measured-parameter: pIC50

### Prompt Which pIC50 is reported for this molecule? COC[C@@H](C)Nc1cc(NC(=O)N2CCCc3cc(CN4CCCCOC4=O)c(C=O)nc32)ncc1C#N
### Response < 5.00
